Experiment: Viability Counterscreen for CMV-Luciferase Assay of Inhibitors of ATXN expression; note: nearly all actives have a fitted effect of over 55% in size
Conditions: HEK-293 CMV-luciferase cells viability, protease fluorescence, 24 h
The campaign covered roughly 2,100 compounds. About 320 (15%) were called active. Another 52% or so got no clear call; they are omitted. Calls come from the whole dose curve; as a rule, active = well fitted cell-killing curve with a large enough effect; inconclusive = small, poorly fitted or top-dose-only effect, or effect the other way; inactive = flat fitted curve, though single readings scatter. Some of the results follow.
Outcome codes: yes (1) for active, no (0) for inactive

• NNC(=O)/C(=N/Nc1ccccc1)S(=O)(=O)c1ccc(Cl)cc1 = yes (1)
• C/C(=N\NC(=O)CSCc1ccc([N+](=O)[O-])cc1)c1ccccc1O = no (0)
• CN(C)c1cc[n+](CC(=O)c2ccc(-c3ccccc3)cc2)cc1 = no (0)
• CN1C2CCC1/C(=C\c1ccccc1)C(=O)/C2=C\c1ccccc1 = yes (1)
• Cn1nc(C(=O)N2CCN(c3ccc(Cl)cc3)CC2)c2c1-c1ccccc1S(=O)(=O)C2 = no (0)

###

Assay: Viability Counterscreen for CMV-Luciferase Assay of Inhibitors of ATXN expression; note: nearly all actives have a fitted effect of over 55% in size
Details: HEK-293 CMV-luciferase cells viability, protease fluorescence, 24 h
In all, about 2,100 compounds went through this assay and about 320 (15%) were called active. Inconclusive results (about 52%) are left out. Calls follow the shape of the dose curve; as a rule, active = well fitted cell-killing curve with a large enough effect; inconclusive = small, poorly fitted or top-dose-only effect, or effect the other way; inactive = flat fitted curve, though single readings scatter. The list shows a part of the results.
Classes used: TRUE for active, FALSE for inactive

- NNc1ncnc2sc3c(c12)CCC3: FALSE
- O=C(C1CCC(CNS(=O)(=O)c2cccs2)CC1)N1CCN(c2ccc(F)cc2)CC1 (stereo not given): FALSE
- Cc1ccc(S(=O)(=O)N2CCc3ccccc3CC2)cc1: FALSE
- CCCOc1ccc(C(=O)C(CN2CCOCC2)c2ccccc2)cc1 (stereo not given): TRUE
- COc1cc(OC)c(C(=O)C=Cc2ccc(OC)c(OC)c2)c(OC)c1: TRUE

###

Assay: Viability Counterscreen for CMV-Luciferase Assay of Inhibitors of ATXN expression; note: nearly all actives have a fitted effect of over 55% in size
Details: HEK-293 CMV-luciferase cells viability, protease fluorescence, 24 h
Hit rate of the full screen: of about 2,100 compounds, about 320 (15%) were called active. Not shown: some 52% with an inconclusive outcome. The call rests on the fitted dose curve; in most records, active means well fitted cell-killing curve with a large enough effect; inconclusive means small, poorly fitted or top-dose-only effect, or effect the other way; inactive means flat fitted curve, though single readings scatter. The list shows a part of the results.
Classes used: true (1) = active, false (0) = inactive

- Cc1cccn2c(Nc3ccccc3)c(-c3ccccn3)nc12: false (0)
- Cc1ccc(Cl)cc1-c1ccc(C=Nc2ccc(N3CCOCC3)cc2)o1: false (0)
- Cc1ccc(S(=O)(=O)c2c(N)n(CC3CCOC3)c3nc4ccccc4nc23)cc1 (configuration not stated): false (0)
- CCN1CCN(C(=S)c2ccc(-c3ccccc3)cc2)CC1: false (0)
- CC(SC(C)C(=O)NN=Cc1cccc(Cl)c1)C(=O)NN=Cc1cccc(Cl)c1 (configuration not stated): false (0)
- OCCN(Cc1ccccc1)CC(O)COc1ccc(-c2ccccc2)cc1 (configuration not stated): false (0)
- CCCCn1c(N)c(S(=O)(=O)c2ccc(C)cc2)c2nc3ccccc3nc21: false (0)
- O=C(NCC1CC1)c1ccc2c(c1)S(=O)(=O)c1cc(Cl)ccc1C2=O: false (0)
- COc1ccc(CC(=O)N/N=C(\C)c2ccccn2)cc1: true (1)
- CC(C)COc1cccc(C(=O)N(CC(=O)Nc2ccccc2C(F)(F)F)Cc2ccco2)c1: false (0)
- CCOc1ccccc1NC(=O)N1CCC(c2nc3ccccc3[nH]2)CC1: false (0)
- OC[C@@H]1CN(Cc2ccncc2)C[C@H](n2cnc3c(N4CCN(c5ccccc5)CC4)ncnc32)O1: false (0)
- CN(C)CCC(c1ccc(Br)cc1)c1ccccn1 (configuration not stated): false (0)
- CCOC(=O)/C=C/C(=O)Nc1ccc(Oc2ccccc2)cc1: false (0)
- Cc1c(C(=O)NCc2ccc(C(F)(F)F)cc2)sc(=O)n1Cc1cccc(F)c1: false (0)
- CN(C)CCNc1ncnc2c1ncn2[C@H]1CN(Cc2ccc(-c3ccccc3)cc2)C[C@@H](CO)O1: false (0)
- COC(=O)c1sc(NC(=O)c2ccc(OC)cc2OC)nc1C: false (0)
- Cc1ccc(C)c(CN2CCC(CNC(=O)Nc3ccc(C)c(C)c3)CC2)c1: false (0)
- COc1ccc(NC(C)C(=O)N/N=C/c2c(O)ccc3ccccc23)cc1 (configuration not stated): true (1)
- [O-][n+]1onc2c1CCc1c-2nn(-c2ccccc2Cl)[n+]1[O-]: true (1)
- CC1(C)Cc2c(c(-c3ccco3)nc3sc4c(NCCN5CCOCC5)ncnc4c23)CO1: false (0)
- NS(=O)(=O)c1ccc(CCNc2nn3c(-c4cccc(OC(F)(F)F)c4)cnc3s2)cc1: false (0)
- N#Cc1ccccc1NC(=O)C1SC(=Nc2ccccc2)C(C(=O)Nc2ccc(Cl)cc2)=C1N (configuration not stated): false (0)
- CCc1nc2c(OCc3ccc(Cl)cc3Cl)cccn2c1N(C=O)Cc1ccc(OC)cc1: false (0)
- CCn1cc(C(=O)NCc2cccc(F)c2)c(=O)c2cc(F)c(N3CCN(C(=O)c4ccco4)CC3)cc21: true (1)
- O=C(Nc1ccc2c(c1)CCC2)C1CCN(c2c3c(nc4ncnn24)CCC3)CC1: false (0)
- Cc1ccc(Sc2nnc(Cc3ccccc3)c3ccccc23)cc1: false (0)
- CCCCn1c2ccc(F)cc2c2nnc(NN)nc21: true (1)
- Cc1ccc(Nc2c(-c3ccccn3)nc3cc(C)ccn23)cc1: true (1)
- COc1ccc(CNc2ncnc3c2[nH]c2ccccc23)cc1: true (1)
- O=C(CCN1C(=O)C2CC=CCC2C1=O)Nc1nc(-c2ccc(F)c(F)c2)cs1 (configuration not stated): false (0)
- Cc1cc(C)c(C)c(OC(=O)c2sc(Cl)nc2C)c1: true (1)
- S=C(Nc1ccccc1)Nc1ccc(OCc2ccc(Cl)cc2Cl)cc1: false (0)
- Cc1noc2ncnc(N3CCN(c4cccc(Cl)c4)CC3)c12: false (0)
- COc1ccc(C(=O)Nn2c(SCC(=O)c3ccccc3)nc3ccccc3c2=O)cc1: false (0)
- OC1(c2ccc(Cl)cc2)CCN(Cc2c[nH]c3ccccc23)CC1: false (0)
- CCN(CC)CCNC(=O)c1ccc(NC(=O)c2ccccc2-c2ccc(C(F)(F)F)cc2)cc1: false (0)
- CCCc1nc(NC2CCCCC2)c(C#N)c2c1COC(C)(C)C2: false (0)
- COc1ccc2nc(C)cc(NCc3ccc(F)cc3)c2c1: false (0)
- CCCOc1ccccc1C1NC(=O)NC(C)=C1C(=O)OCc1ccccc1 (configuration not stated): false (0)
- COc1cccc(/C=N/n2c(N)c(S(=O)(=O)c3cccs3)c3nc4ccccc4nc32)c1OC: true (1)
- Cc1ccc(Nc2c(-c3ccccn3)nc3cccc(C)n23)cc1: true (1)

Numbers sourced from PubChem BioAssay AID1745849.
